test: AUC (0 to 24 hrs) in rat at 10 mg/kg, iv; type: ADME, organism-based; parameters: time < 24 hr, dose 10 mg/kg, route intravenous; conditions: in vivo
Property: AUC(0-t) at 24 h (µM·h)

Compound: Cc1cn2c(-c3cn[nH]c3)cnc2c(Nc2cc(C(NC(C)(C)C)c3ccccn3)ns2)n1 (single isomer, unassigned; (+))
Property: AUC(0-t) at 24 h
Recorded value: 33

====

Each record here notes measured half-life.
assay: Half life in mouse at 3 mg/kg, iv; assay type: ADME, organism-based; conditions: in vivo

Compound: Cc1cn2c(-c3cn[nH]c3)cnc2c(Nc2cc(Cc3ccccn3)ns2)n1
half-life: 0.2 h

Compound: Cc1cn2c(-c3cn[nH]c3)cnc2c(Nc2cc(C(NC(C)(C)C)c3ccccn3)ns2)n1 (single isomer, unassigned; (+))
half-life: 1.8 h

====

assay: Equilibrium solubility of the compound in citrate buffer at pH 5.3 by HPLC method; type: physicochemical

Compound: Cc1cn2c(-c3cn[nH]c3)cnc2c(Nc2cc(C(NC(C)(C)C)c3ccccn3)ns2)n1 (single isomer, unassigned; (+))
solubility thermodynamic, µg/mL: 5300

====

Each record here notes measured AUC(0-t) at 48 h.
assay: AUC (0 to 48 hrs) in dog at 3 mg/kg, po; format: ADME, organism-based, Canis lupus familiaris; parameters: dose 3 mg/kg, time < 48 hr, route oral; conditions: in vivo

Compound: Cc1cn2c(-c3cn[nH]c3)cnc2c(Nc2cc(C(NC(C)(C)C)c3ccccn3)ns2)n1 (single isomer, unassigned; (+))
AUC(0-t) at 48 h [µM·h]: 10.1

Compound: Cc1cn2c(-c3cn[nH]c3)cnc2c(Nc2cc(Cc3ccccn3)ns2)n1
AUC(0-t) at 48 h [µM·h]: 4.1

====

biological target: Aurora kinase B (Homo sapiens, UniProt Q96GD4); assay: Inhibition of Aurora B in human HCT116 cells assessed as reduction in phosphorylation of Histone H3 at Ser10 residue incubated for 1 hr by Hoechst 33342 dye-based immunofluorescence microscopic method
Sequence (Q96GD4 whole entry): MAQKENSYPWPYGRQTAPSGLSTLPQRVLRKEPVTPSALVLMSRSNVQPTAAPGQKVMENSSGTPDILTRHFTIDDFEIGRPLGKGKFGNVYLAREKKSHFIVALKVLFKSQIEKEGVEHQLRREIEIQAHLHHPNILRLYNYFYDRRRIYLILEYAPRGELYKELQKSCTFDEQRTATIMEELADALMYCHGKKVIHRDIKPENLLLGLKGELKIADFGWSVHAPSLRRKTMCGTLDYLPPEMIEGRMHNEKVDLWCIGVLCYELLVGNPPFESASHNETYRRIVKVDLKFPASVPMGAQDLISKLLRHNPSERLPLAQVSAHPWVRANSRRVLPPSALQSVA
Each record here notes measured EC50.
Property: EC50 (nM)

Compound: Cc1cn2c(-c3cn[nH]c3)cnc2c(Nc2cc(Cc3cccnc3)ns2)n1
Cmp: >
Recorded value: 1000

Compound: Cc1ccc(Cc2cc(Nc3nc(C)cn4c(-c5cn[nH]c5)cnc34)sn2)nc1
Cmp: =
Recorded value: 475

Compound: Cc1cccc(Cc2cc(Nc3nc(C)cn4c(-c5cn[nH]c5)cnc34)sn2)n1
Cmp: =
Recorded value: 88

Compound: CCN(CCO)Cc1cc(Nc2nc(C)cn3c(-c4cn[nH]c4)cnc23)sn1
Cmp: =
Recorded value: 24

Compound: Cc1cn2c(-c3cn[nH]c3)cnc2c(Nc2cc(C(NC(C)(C)C)c3ccccn3)ns2)n1 (racemic)
Cmp: <
Recorded value: 16

====

target: Aurora kinase B (Homo sapiens, UniProt Q96GD4); experiment: Inhibition of Aurora B in human HCT116 cells assessed as reduction in phosphorylation of Histone H3 at Ser10 residue incubated for 1 hr by Hoechst 33342 dye-based immunofluorescence microscopic method
pEC50: −log10 of the molar value.
Property: pEC50

Compound: Cc1cn2c(-c3cn[nH]c3)cnc2c(Nc2cc(C(c3ccccn3)N3CCCC3)ns2)n1 (racemic)
Cmp: >
Recorded value: 7.80

Compound: Cc1cn2c(-c3cn[nH]c3)cnc2c(Nc2cc(Cn3ccnc3)ns2)n1
Cmp: =
Recorded value: 6.43

Compound: Cc1cn2c(-c3cn[nH]c3)cnc2c(Nc2cc(C(c3ccccn3)N3CCC(F)CC3)ns2)n1 (racemic)
Cmp: =
Recorded value: 7.08

Compound: Cc1cn2c(-c3cn[nH]c3)cnc2c(Nc2cc(Cc3ccc(F)cn3)ns2)n1
Cmp: =
Recorded value: 6.31

====

target: UniProtKB Q96GD4; assay: Inhibition of Aurora B in human HCT116 cells assessed as reduction in phosphorylation of Histone H3 at Ser10 residue incubated for 1 hr by Hoechst 33342 dye-based immunofluorescence microscopic method

Molecule: Cc1cn2c(-c3cn[nH]c3)cnc2c(Nc2cc(C(NC(C)(C)C)c3ccccn3)ns2)n1 (single isomer, unassigned; (+))
EC50: < 16 nM
//
Molecule: Cc1cn2c(-c3cn[nH]c3)cnc2c(Nc2cc(Cc3ccncc3)ns2)n1
EC50: > 1000 nM
//
Molecule: Cc1cn2c(-c3cn[nH]c3)cnc2c(Nc2cc(C(c3ccccn3)N3CCCCC3)ns2)n1 (racemic)
EC50: < 16 nM

====

experiment: AUC (0 to 6 hrs) in rat at 10 mg/kg, po; assay type: ADME, organism-based; parameters: time < 6 hr, dose 10 mg/kg, route oral; settings: in vivo
Each record here notes measured AUC(0-t) at 6 h.
Property: AUC(0-t) at 6 h

Compound: Cc1cn2c(-c3cn[nH]c3)cnc2c(Nc2cc(Cc3cnccn3)ns2)n1
Property: AUC(0-t) at 6 h
Recorded value: 0.15 µM·h
//
Compound: Cc1cn2c(-c3cn[nH]c3)cnc2c(Nc2cc(Cc3ccc(F)cn3)ns2)n1
Property: AUC(0-t) at 6 h
Recorded value: 5.5 µM·h
//
Compound: Cc1cn2c(-c3cn[nH]c3)cnc2c(Nc2cc(Cc3ncccc3F)ns2)n1
Property: AUC(0-t) at 6 h
Recorded value: 1.4 µM·h
//
Compound: Cc1cn2c(-c3cn[nH]c3)cnc2c(Nc2cc(Cc3cccc(C(=O)N4CCCCC4)n3)ns2)n1
Property: AUC(0-t) at 6 h
Recorded value: 0.1 µM·h
//
Compound: Cc1cn2c(-c3cn[nH]c3)cnc2c(Nc2cc(C(c3ccccn3)N3CCC(F)CC3)ns2)n1 (racemic)
Property: AUC(0-t) at 6 h
Recorded value: 0.45 µM·h
//
Compound: Cc1cccc(Cc2cc(Nc3nc(C)cn4c(-c5cn[nH]c5)cnc34)sn2)n1
Property: AUC(0-t) at 6 h
Recorded value: 7.7 µM·h
//
Compound: Cc1cn2c(-c3cn[nH]c3)cnc2c(Nc2cc(C(NC(C)(C)C)c3ccccn3)ns2)n1 (racemic)
Property: AUC(0-t) at 6 h
Recorded value: 1.6 µM·h
//
Compound: Cc1cn2c(-c3cn[nH]c3)cnc2c(Nc2cc(Cc3ccccn3)ns2)n1
Property: AUC(0-t) at 6 h
Recorded value: 17.7 µM·h
//
Compound: Cc1cn2c(-c3cn[nH]c3)cnc2c(Nc2cc(Cc3cccc(F)n3)ns2)n1
Property: AUC(0-t) at 6 h
Recorded value: 7.3 µM·h
